B1: Osa-1-4 twister ribozyme (parent)
chain: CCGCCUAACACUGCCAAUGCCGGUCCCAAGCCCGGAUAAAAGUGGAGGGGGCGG

Variants of: B1
Experiment: self-cleavage, relative activity (ratio to wild type); higher = more cleavage; co-transcriptional
Quick list: self-cleavage per entry.
Give only the figure.

{"Mutation code": "A46U C25A", "Recorded value": 0.03}
{"Mutation code": "A28G A46U", "Recorded value": 0.05}
{"Mutation code": "A29U G22C", "Recorded value": 0.04}
{"Mutation code": "C33G G49U", "Recorded value": 0.02}
{"Mutation code": "G44A U12A", "Recorded value": 0.65}

Reported self-cleavage for A10G U43A was 0.79

Reported self-cleavage of A16G G13C : 0.02

In plain terms, A28C C32U has a documented self-cleavage of 0.11

// self-cleavage lookup, variant = A40C C21U , result: 0.09

The variant listed as C11G U24G has a reported self-cleavage of 0.04

Per the record, G34C U37A has self-cleavage of 0.6

Notebook: C52G G54C , self-cleavage read as 0.91

The variant G42A G50U showed self-cleavage equal to 0.83

# variant A16C A36U ; its self-cleavage = 0.99

Reported self-cleavage ( A36U U18G ) = 0.88

// sample C52U G23U , its self-cleavage was 0.25

# variant A10C A46G ; its self-cleavage = 0.03

Recorded result, C20G G48U , self-cleavage: 0.03

Briefly, self-cleavage measured for A16G G47A : 0.6

The variant listed as C20A G22C has a reported self-cleavage of 0.07

Given item C14U U43A , the value recorded as its self-cleavage is 0.12

Reported self-cleavage for C33A U24A was 0.05

Record C20G G53C , field self-cleavage: 0.03

Input A7G G23A . Output self-cleavage: 0.14

Note to self: self-cleavage recorded for C11G G45U was 0.06

For record C33U C9A the listed self-cleavage is 0.2

// recorded self-cleavage for U18C : 0.96
